// data source = ChEMBL document CHEMBL1154591

Test system: Pseudomonas aeruginosa
Experiment: Antibacterial activity against Pseudomonas aeruginosa after 24 hrs by two fold serial dilution technique
Type: functional
readout: MIC
Please report the result as a number followed by the unit.

Answered examples (7):
Given the entry CC1=C(C(=O)OC(C)C)C(c2ccc(C)cc2)NC(=O)N1 (stereo not drawn) , report its measured MIC.
50 µg/mL

What does the record list as MIC for CC1=C(C(=O)OC(C)C)C(c2ccc([N+](=O)[O-])cc2)NC(=O)N1 (stereo not drawn) ?
12.5 µg/mL

Fill in: MIC of CC1=C(C(=O)OC(C)C)C(c2ccccc2)NC(=O)N1 (stereo not drawn) is ___
100 µg/mL

MIC lookup needed for CC1=C(C(=O)OC(C)C)C(c2ccc(F)cc2)NC(=O)N1 (stereo not drawn) , thanks.
12.5 µg/mL

Which MIC is reported for this molecule? CC1=C(C(=O)OC(C)C)C(c2ccccc2)NC(=S)N1 (stereo not drawn)
50 µg/mL

Return reported MIC; argument: CC1=C(C(=O)OC(C)C)C(c2ccccc2Cl)NC(=O)N1 (stereo not drawn)
25 µg/mL

Entry CC1=C(C(=O)OC(C)C)C(c2ccc(Cl)cc2)NC(=O)N1 (stereo not drawn) has what MIC?
25 µg/mL

Pending molecule:
Which MIC reading was recorded for the molecule COc1ccc(C2NC(=O)NC(C)=C2C(=O)OC(C)C)cc1 (stereo not drawn) ?
50 µg/mL

====

System: Mucor
Assay: Antifungal activity against Mucor after 72 to 96 hrs by two fold serial dilution technique
Assay type: functional
Please provide measured MIC for the entries that follow.
One number for each entry, in µg/mL.

Suppose we examine the compound CC1=C(C(=O)OC(C)C)C(c2ccc(F)cc2)NC(=O)N1 (centres undefined) ; what MIC value has been reported?
25

Item CC1=C(C(=O)OC(C)C)C(c2ccc(C)cc2)NC(=O)N1 (centres undefined) has what recorded MIC?
50

# input compound: CC1=C(C(=O)OC(C)C)C(c2ccccc2Cl)NC(=O)N1 (centres undefined) ; wanted: its MIC
50

Give one value of MIC per listed compound.
1. C[C@@H]1[C@H](O)[C@@H](C)/C=C/C=C/C=C/C=C/C=C/C=C/C=C/[C@H](O[C@@H]2O[C@H](C)[C@@H](O)[C@H](N)[C@@H]2O)C[C@@H]2O[C@](O)(C[C@@H](O)C[C@@H](O)[C@H](O)CC[C@@H](O)C[C@@H](O)CC(=O)O[C@H]1C)C[C@H](O)[C@H]2C(=O)O [AMPHOTERICIN B]
2. CC1=C(C(=O)OC(C)C)C(c2ccc([N+](=O)[O-])cc2)NC(=O)N1 (centres undefined)
3. CC1=C(C(=O)OC(C)C)C(c2ccccc2)NC(=S)N1 (centres undefined)
4. CC1=C(C(=O)OC(C)C)C(c2ccccc2)NC(=O)N1 (centres undefined)

1. 50
2. 12.5
3. 50
4. 200

Batch of 2 compounds: report MIC for each.
1. CC1=C(C(=O)OC(C)C)C(c2ccc(Cl)cc2)NC(=O)N1 (centres undefined)
2. COc1ccc(C2NC(=O)NC(C)=C2C(=O)OC(C)C)cc1 (centres undefined)

[50, 50]

====

System: Escherichia coli
Assay: Antibacterial activity against Escherichia coli after 24 hrs by two fold serial dilution technique
Format: functional
readout: MIC
In your response, the unit should come after the numeric value.

// returns reported MIC for input O=C(O)c1cn(C2CC2)c2cc(N3CCNCC3)c(F)cc2c1=O [CIPROFLOXACIN]
25 µg/mL

Report MIC for every entry below.
1. CC1=C(C(=O)OC(C)C)C(c2ccccc2)NC(=S)N1 (stereo not drawn)
2. CC1=C(C(=O)OC(C)C)C(c2ccc([N+](=O)[O-])cc2)NC(=O)N1 (stereo not drawn)

1: 200 µg/mL; 2: 12.5 µg/mL
